# assay: Quantitative High-Throughput drug screen in 47 multiple myeloma cell lines against the NCATS MIPE library collection: Delta47_JCRB cell viability assay (AID 1918925; also: nearly all actives have a fitted effect of over 45% in size)
# measurementSetup: Delta47 myeloma viability, CellTiter-Glo ATP, 48 h; series mostly up to 45.8 µM
Results filed as inconclusive are left out. Active and inactive are the calls of the source. Calls follow the shape of the dose curve; as a rule, active = well fitted cell-killing curve with a large enough effect; inconclusive = small, poorly fitted or top-dose-only effect, or effect the other way; inactive = no such curve, though single readings can be large or run the other way. Positions of bridges follow the written chain, without caps; N, C: chain ends. Non-standard residues stand in square brackets, D forms with d. Residues, ends and D or L forms follow the SMILES beside them. ξ: configuration not given here. *: point of attachment. Octanoyl(6-Me) = CCC(C)CCCCC(=O)*; ξThr(3R) = C[C@@H](O)C(N)C(=O)O; dDab = NCC[C@@H](N)C(=O)O; Dab = NCC[C@H](N)C(=O)O
Can you answer with just one of these options? active, inactive

Problem: Test call, this compound: CCN1CCN(C(=O)N[C@H](C(=O)N[C@@H]2C(=O)N3C(C(=O)O)=C(CSc4nnnn4C)CS[C@@H]23)c2ccc(O)cc2)C(=O)C1=O
Result: inactive

Problem: Give the logged outcome of this assay for the following compound: C=Cc1c(C)c2cc3nc(cc4[nH]c(cc5nc(cc1[nH]2)C(C)=C5CCC(=O)O)c(CCC(=O)OC)c4C)[C@@]1(C)C3=CC=C(C(=O)OC)[C@H]1C(=O)OC
Result: active

Problem: Recorded test call requested for CC[C@H]1OC(=O)[C@H](C)[C@@H](O[C@H]2C[C@@](C)(OC)[C@@H](O)[C@H](C)O2)[C@H](C)[C@@H](O[C@@H]2O[C@H](C)C[C@H](N(C)C)[C@@H]2O)[C@](C)(OC)C[C@@H](C)C(=O)[C@H](C)[C@@H](O)[C@]1(C)O
Result: inactive

Problem: What did this assay record as the result for CCN(CC)CCNC(=O)c1c(C)[nH]c(C=C2C(=O)Nc3ccc(F)cc32)c1C ?
Result: active

Problem: Give the logged outcome of this assay for the following compound: CC1(C)[C@H](O[C@H]2O[C@H](C(=O)O)[C@@H](O)[C@H](O)[C@H]2O[C@@H]2O[C@H](C(=O)O)[C@@H](O)[C@H](O)[C@H]2O)CC[C@@]2(C)[C@H]1CC[C@]1(C)[C@H]2C(=O)C=C2[C@H]3C[C@@](C)(C(=O)O)CC[C@]3(C)CC[C@]21C
Result: inactive

Problem: Record lookup: outcome of this test for CCC(C)CCCCC(=O)N[C@@H](CCN)C(=O)NC(C(=O)N[C@H](CCN)C(=O)N[C@@H]1CCNC(=O)C([C@@H](C)O)NC(=O)[C@@H](CCN)NC(=O)[C@@H](CCN)NC(=O)[C@@H](CC(C)C)NC(=O)[C@H](Cc2ccccc2)NC(=O)[C@H](CCN)NC1=O)[C@@H](C)O (stereo partly drawn) ({Octanoyl(6-Me)}-[Dab][ξThr(3R)][dDab][dDab][Dab]F[dL][dDab][dDab][ξThr(3R)]; lactam 4-C) ?
Result: inactive

----------
# assay: qHTS of pediatric cancer cell lines to identify multiple opportunities for drug repurposing: Primary screen for BT-37 cells (AID 1347094)
# measurementSetup: BT-37 viability, CellTiter-Glo luminescence, 48 h; series mostly up to 57.3 µM
Inconclusive results are not listed. Activity calls are given as the source filed them. Calls follow the shape of the dose curve; as a rule, active = well fitted cell-killing curve with a large enough effect; inconclusive = small, poorly fitted or top-dose-only effect; inactive = flat fitted curve, though single readings scatter.
Log the outcome using a class from label 1 = active, label 0 = inactive

Problem: Which result was noted for this compound in the test: COC[C@H](NC(=O)c1cnc(C)s1)C(=O)N[C@@H](COC)C(=O)N[C@@H](Cc1ccccc1)C(=O)[C@@]1(C)CO1
Result: label 1

Problem: What is the recorded call for this compound in the test? CC(C)N1[N]C(=C2C=c3cc(O)ccc3=N2)c2c(N)ncnc21
Result: label 1

Problem: I would be grateful if you could indicate the recorded call for COC1=C(OC)C(=O)C(CC=C(C)CCC=C(C)CCC=C(C)CCC=C(C)CCC=C(C)CCC=C(C)CCC=C(C)CCC=C(C)CCC=C(C)CCC=C(C)C)=C(C)C1=O .
Result: label 0

Problem: What did this assay record as the result for Nc1ncn([C@@H]2O[C@H](CO)[C@@H](O)[C@@H]2O)c(=O)n1 ?
Result: label 1
